All values here come from the supplement of paper PMC6757056.

B1: library; a variant is named by its letters at N, in order (parent)
chain: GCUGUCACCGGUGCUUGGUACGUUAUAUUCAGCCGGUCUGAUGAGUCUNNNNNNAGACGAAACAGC

- Variants of: B1
- test_summary: normalized RNA/DNA level with ligand (relative to sTRSVctl = 100) (log10 (% of sTRSVctl)); HEK293T overexpressing SLC46A1; ligand concentration (+) RNA-Seq: 6 mM; higher = less ribozyme self-cleavage, higher mRNA level
- measurement_parameters: with (6R,S)-folinic acid; ligand present: yes
readout_label: normalized RNA/DNA level with ligand (log10)
Note: the reply should be a number with no unit written.

Worked examples follow.
mutant_id: GACUAU
observed: 2
//
mutant_id: GGUACC
observed: 2.03
//
mutant_id: AGUCUG
observed: 2.04
//
mutant_id: CUCGGU
observed: 2.02
//
mutant_id: AGAGGA
observed: 2.02
//
mutant_id: AGGGCC
observed: 2.06
//
mutant_id: UUUCGU
observed: 2.01
//
mutant_id: UUAAAA
observed: 1.97

Shifting focus to the variant that follows.
Prompt line: Endpoint output: normalized RNA/DNA level with ligand (log10) of CAGCCG . Value?
Response line: 2.05
